Listing of entries alongside the reported displacement.
Target: Bcl-2-like protein 10 (Homo sapiens) (UniProt Q9HD36)
Sequence (Q9HD36 whole entry, looked up): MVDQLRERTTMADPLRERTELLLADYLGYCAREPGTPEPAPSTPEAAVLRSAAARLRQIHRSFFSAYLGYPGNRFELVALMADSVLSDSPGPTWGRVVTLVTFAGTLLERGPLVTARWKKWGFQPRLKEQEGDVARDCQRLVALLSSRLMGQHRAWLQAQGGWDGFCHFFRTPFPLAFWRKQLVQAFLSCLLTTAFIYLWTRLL
Assay: TR3 peptide-Bcl-B binding displacers, biochemical primary FP assay, phenotype converters (AID 1240);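 note: 0% = Bcl-B with tracer peptide and DMSO and 100% = tracer peptide lacking Bcl-B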
Conditions: GST-Bcl-B / FITC-TR3 peptide fluorescence polarization; stronger effect = higher value; compound at 3.75 mg/L
About 800 (1.6%) of roughly 50,000 compounds showed an effect of 50% or more. For the sample, strong results were picked, then their nearest neighbours and some compounds at random.
Kindly provide the numeric value in % only, without the unit symbol.

CCOc1cc(/C=C2/SC(N)=NC2=O)ccc1OCc1ccc(F)cc1; -15.9
COc1ccc(OC)c(N(CC(=O)N/N=C/c2ccc(OC3CSC3)cc2)S(=O)(=O)c2ccccc2)c1; 7.5
COc1cc(/C=N/NC(N)=O)ccc1OCC(=O)N1CCCCC1; -4.4

Request: State its displacement on Bcl-2-like protein 10 (Homo sapiens) (UniProt Q9HD36): `N#Cc1c(/N=C\c2ccc(N3CCCCC3)c([N+](=O)[O-])c2)sc2c1CCCC2`
Result: -5.3

Request: State its displacement on Bcl-2-like protein 10 (Homo sapiens) (UniProt Q9HD36): `N#Cc1c(/N=C/c2cc([N+](=O)[O-])c(N3CCOCC3)cc2N2CCOCC2)sc2c1CCCC2`
Result: 14.5

Request: State its displacement on Bcl-2-like protein 10 (Homo sapiens) (UniProt Q9HD36): `CC(=NCc1ccccc1)c1c(C)[nH]n(-c2nc3ccccc3s2)c1=O`
Result: 12.2

Request: State its displacement on Bcl-2-like protein 10 (Homo sapiens) (UniProt Q9HD36): `CCCCN(CC)c1cnn(-c2ccccc2)c(=O)c1N`
Result: 10.6

Request: State its displacement on Bcl-2-like protein 10 (Homo sapiens) (UniProt Q9HD36): `COc1ccc(/C=C2\C=C(c3ccc(Cl)cc3)OC2=O)cc1OC`
Result: 147

---

Molecular target: Bcl-2-like protein 10 (Homo sapiens) (UniProt Q9HD36)
Test: TR3 peptide-Bcl-B binding displacers, biochemical primary FP assay, phenotype converters (AID 1240);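 note: 0% = Bcl-B with tracer peptide and DMSO and 100% = tracer peptide lacking Bcl-B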
Conditions: GST-Bcl-B / FITC-TR3 peptide fluorescence polarization; stronger effect = higher value; compound at 3.75 mg/L
Among all 50,000 compounds or so, about 800 (1.6%) showed an effect of 50% or more. This excerpt belongs to a sample that is enriched for strong results.
EXPERIMENTAL_ENDPOINT: displacement (%)
Kindly provide the numeric value in % only, without the unit symbol.

Some entries whose results are on file:
O=C1c2ccccc2C(=O)c2c(NC3CCCCC3)cccc21; -2.9
O=C1c2ccccc2-c2onc3ccc(N4CCCCC4)c1c23; 145
C=C(C)C1CC=C(C)/C(=N/NC(=O)c2cccc(C)c2)C1 (centres undefined); 14.9

Request: Quick one: displacement for `CCOC(=O)c1c(C)[nH]c(N=Nc2ccc(C)cc2)c1C` ?
Result: 2.4

Request: Quick one: displacement for `Cc1occc1C(=O)N/N=C/c1ccc(O)cc1O` ?
Result: 78.5

Request: Quick one: displacement for `Cc1ccc(N2CCCCC2)c2c1C(=O)c1ccccc1C2=O` ?
Result: 1.1

Request: Quick one: displacement for `Nc1nonc1N=Cc1cc(Br)ccc1O` ?
Result: -12.8

Request: Quick one: displacement for `COc1cccc(/C=c2/sc3nc4ccccc4n3c2=O)c1` ?
Result: 92.4

Request: Quick one: displacement for `CCOC(=O)COc1cc(Br)c(/C=c2\sc3nc4ccccc4n3c2=O)cc1OC` ?
Result: 11.1
